Hey, just so you know, these numbers are from patent US20250026724A1.

Test system: Pharbitis purpurea (PHBPU)
ASSAY COMMENT: Post-emergence herbicidal action, greenhouse pot trial
Format: in vivo
RECORDED CONDITIONS: Ipomoea purpurea, 504 h, 320 g/ha, visual rating after about 3 weeks, read-out: Post-emergence effect at 320 g/ha against PHBPU in %
MEASURED ATTRIBUTE: pest or weed control at 320 g/ha (%)
Report the figure in % without appending any unit label.

These recorded examples may help you get a feel for the data.
COMPOUND: CSC(Oc1nn(-c2ncccc2F)c(-c2ccc(F)nc2)c1Cl)C(=O)O (stereo not drawn) [Example I-31]
RESULT UNITS: %
pest or weed control at 320 g/ha: 80
--
COMPOUND: COC(=O)C(Oc1nn(-c2ccccc2F)c(-c2ccc(F)nc2)c1Br)SC (stereo not drawn) [Example I-10]
RESULT UNITS: %
pest or weed control at 320 g/ha: 80
--
COMPOUND: CCOC(=O)C(Oc1nn(-c2cnccn2)c(-c2ccc(F)nc2)c1Cl)SC (stereo not drawn) [Example I-16]
RESULT UNITS: %
pest or weed control at 320 g/ha: 80

Query (compound): CCOC(=O)C(Oc1nn(-c2cc(F)ccc2F)c(-c2cncc(F)c2)c1Br)SC (stereo not drawn) [Example I-03] ; field requested: pest or weed control at 320 g/ha 80

Query (compound): CCOC(=O)C(Oc1nn(-c2ncccc2F)c(-c2cncc(F)c2)c1Br)SC (stereo not drawn) [Example I-39] ; field requested: pest or weed control at 320 g/ha 90

Query (compound): CSC(Oc1nn(-c2cc(F)ccc2F)c(-c2cncc(F)c2)c1Br)C(=O)O (stereo not drawn) [Example I-06] ; field requested: pest or weed control at 320 g/ha 80

Query (compound): CCOC(=O)C(Oc1nn(-c2ncccc2F)c(-c2ccc(F)nc2)c1Cl)SC (stereo not drawn) [Example I-19] ; field requested: pest or weed control at 320 g/ha 90

---

Test system: Pharbitis purpurea (PHBPU)
ASSAY COMMENT: Post-emergence herbicidal action, greenhouse pot trial
Format: in vivo
RECORDED CONDITIONS: Ipomoea purpurea, 504 h, 80 g/ha, visual rating after about 3 weeks, read-out: Post-emergence effect at 80 g/ha against PHBPU in %
Method: Seeds of monocotyledonous and dicotyledonous weeds and crop plants are placed in sandy loam in plastic or organic planting pots, covered with soil and cultivated in a greenhouse under controlled growth conditions. 2 to 3 weeks after sowing, the trial plants are treated at the one-leaf stage. […]
MEASURED ATTRIBUTE: pest or weed control at 80 g/ha (%)
Report the figure in % without appending any unit label.

MOLECULE: CCOC(=O)C(Oc1nn(-c2ncccc2F)c(-c2ccc(F)nc2)c1I)SC (centres unmarked) [Example I-18]
TEST SYSTEM: Pharbitis purpurea (PHBPU)
pest or weed control at 80 g/ha (%): 80

Query (molecule): COC(=O)C(Oc1nn(-c2ncccc2F)c(-c2ccc(F)nc2)c1C1CC1)SC (centres unmarked) [Example I-59] ; field requested: pest or weed control at 80 g/ha 90

Query (molecule): COC(=O)C(Oc1nn(-c2ncccc2F)c(-c2ccc(F)nc2)c1Br)SC (single isomer, unassigned) [Example I-26] ; field requested: pest or weed control at 80 g/ha 80

Query (molecule): CCOC(=O)C(Oc1nn(-c2cnccn2)c(-c2ccc(F)nc2)c1Br)SC (centres unmarked) [Example I-17] ; field requested: pest or weed control at 80 g/ha 80

Query (molecule): CCOC(=O)C(Oc1nn(-c2ncccc2F)c(-c2ccc(F)nc2)c1Br)SC (single isomer, unassigned) [Example I-28] ; field requested: pest or weed control at 80 g/ha 90

---

System: Echinochloa crus-galli (ECHCG)
ASSAY COMMENT: Post-emergence herbicidal action, greenhouse pot trial
Assay type: in vivo
RECORDED CONDITIONS: Echinochloa crus-galli, 504 h, 320 g/ha, visual rating after about 3 weeks, read-out: Post-emergence effect at 320 g/ha against ECHCG in %
MEASURED ATTRIBUTE: pest or weed control at 320 g/ha (%)
Report the figure in % without appending any unit label.

These recorded examples may help you get a feel for the data.
MOLECULE: CCOC(=O)C(Oc1nn(-c2ccccc2F)c(-c2ccc(F)nc2)c1I)SC (centres unmarked)
pest or weed control at 320 g/ha / %: 90

MOLECULE: CCOC(=O)C(Oc1nn(-c2cnccn2)c(-c2ccc(F)nc2)c1Br)SC (centres unmarked)
pest or weed control at 320 g/ha / %: 80

MOLECULE: COC(=O)C(Oc1nn(-c2cc(F)ccc2F)c(-c2cncc(F)c2)c1Br)SC (centres unmarked)
pest or weed control at 320 g/ha / %: 90

Query (molecule): CSC(Oc1nn(-c2ncccc2F)c(-c2ccc(F)nc2)c1Br)C(=O)O (single isomer, unassigned) [Example I-24] ; field requested: pest or weed control at 320 g/ha 90

Query (molecule): CCOC(=O)C(Oc1nn(-c2ncccc2F)c(-c2ccc(F)nc2)c1I)SC (centres unmarked) ; field requested: pest or weed control at 320 g/ha 100

Query (molecule): CCOC(=O)C(Oc1nn(-c2ccccc2F)c(-c2ccc(F)nc2)c1Br)SC (single isomer, unassigned) [Example I-30] ; field requested: pest or weed control at 320 g/ha 80

Query (molecule): CCOC(=O)C(Oc1nn(-c2ncccc2F)c(-c2ccc(F)nc2)c1C1CC1)SC (centres unmarked) ; field requested: pest or weed control at 320 g/ha 90

Query (molecule): CSC(Oc1nn(-c2ncccc2F)c(-c2cncc(F)c2)c1Br)C(=O)O (centres unmarked) ; field requested: pest or weed control at 320 g/ha 90

---

Tested on: Matricaria inodora (MATIN)
ASSAY COMMENT: Post-emergence herbicidal action, greenhouse pot trial
Assay type: in vivo
RECORDED CONDITIONS: Tripleurospermum inodorum, 504 h, 320 g/ha, visual rating after about 3 weeks, read-out: Post-emergence effect at 320 g/ha against MATIN in %
Overview of recorded pest or weed control at 320 g/ha for various molecules
State the result as a value with its unit after it.

MOLECULE: CCOC(=O)C(Oc1nn(-c2cc(F)ccc2F)c(-c2cncc(F)c2)c1Br)SC (centres unmarked)
pest or weed control at 320 g/ha: 90%
//
MOLECULE: CSC(Oc1nn(-c2ncccc2F)c(-c2ccc(F)nc2)c1Br)C(=O)O (centres unmarked) [Example I-34]
pest or weed control at 320 g/ha: 80%
//
MOLECULE: CSC(Oc1nn(-c2ncccc2F)c(-c2cncc(F)c2)c1C1CC1)C(=O)O (centres unmarked)
pest or weed control at 320 g/ha: 90%
//
MOLECULE: CSC(Oc1nn(-c2ncccc2F)c(-c2ccc(F)nc2)c1Cl)C(=O)O (centres unmarked)
pest or weed control at 320 g/ha: 80%
//
MOLECULE: CCOC(=O)C(Oc1nn(-c2ncccc2F)c(-c2cncc(F)c2)c1C1CC1)SC (centres unmarked)
pest or weed control at 320 g/ha: 90%
//
MOLECULE: COC(=O)C(Oc1nn(-c2cc(F)ccc2F)c(-c2cncc(F)c2)c1C1CC1)SC (centres unmarked)
pest or weed control at 320 g/ha: 80%

Requested read-out pest or weed control at 320 g/ha, target or system Matricaria inodora (MATIN), entry COC(=O)C(Oc1nn(-c2ccccc2F)c(-c2ccc(F)nc2)c1Br)SC (centres unmarked) 90%

Requested read-out pest or weed control at 320 g/ha, target or system Matricaria inodora (MATIN), entry CCOC(=O)C(Oc1nn(-c2ncccc2F)c(-c2ccccc2)c1Br)SC (centres unmarked) 80%

Requested read-out pest or weed control at 320 g/ha, target or system Matricaria inodora (MATIN), entry CSC(Oc1nn(-c2ncccc2F)c(-c2cncc(F)c2)c1Br)C(=O)O (centres unmarked) 90%

Requested read-out pest or weed control at 320 g/ha, target or system Matricaria inodora (MATIN), entry CCOC(=O)C(Oc1nn(-c2ccccc2)c(-c2ccc(F)nc2)c1Br)SC (centres unmarked) 90%

Requested read-out pest or weed control at 320 g/ha, target or system Matricaria inodora (MATIN), entry CSC(Oc1nn(-c2ncccc2F)c(-c2ccc(F)nc2)c1Br)C(=O)O (single isomer, unassigned) [Example I-24] 80%

---

Test system: Viola tricolor (VIOTR)
ASSAY COMMENT: Post-emergence herbicidal action, greenhouse pot trial
Assay type: in vivo
RECORDED CONDITIONS: Viola tricolor, 504 h, 320 g/ha, read-out: Post-emergence effect against VIOTR
MEASURED ATTRIBUTE: pest or weed control at 320 g/ha (%)
Report the figure in % without appending any unit label.

These recorded examples may help you get a feel for the data.
MOLECULE: CSC(Oc1nn(-c2ccccc2F)c(-c2ccc(F)nc2)c1I)C(=O)O (centres unmarked)
pest or weed control at 320 g/ha, %: 90

MOLECULE: CCOC(=O)C(Oc1nn(-c2cc(F)ccc2F)c(-c2cncc(F)c2)c1Br)SC (centres unmarked)
pest or weed control at 320 g/ha, %: 90

MOLECULE: CSC(Oc1nn(-c2cnccn2)c(-c2ccc(F)nc2)c1Br)C(=O)O (centres unmarked)
pest or weed control at 320 g/ha, %: 80

MOLECULE: CCOC(=O)C(Oc1nn(-c2cc(F)ccc2F)c(-c2cncc(F)c2)c1I)SC (centres unmarked)
pest or weed control at 320 g/ha, %: 90

MOLECULE: COC(=O)C(Oc1nn(-c2cc(F)ccc2F)c(-c2cncc(F)c2)c1C1CC1)SC (centres unmarked)
pest or weed control at 320 g/ha, %: 90

Query (molecule): CCOC(=O)C(Oc1nn(-c2ccccc2F)c(-c2ccc(F)nc2)c1Br)SC (single isomer, unassigned) [Example I-30] ; field requested: pest or weed control at 320 g/ha 90

Query (molecule): CSC(Oc1nn(-c2ncccc2F)c(-c2ccc(F)nc2)c1Br)C(=O)O (centres unmarked) [Example I-34] ; field requested: pest or weed control at 320 g/ha 90

Query (molecule): CCOC(=O)C(Oc1nn(-c2ncccc2F)c(-c2ccc(F)nc2)c1C(F)(F)F)SC (centres unmarked) ; field requested: pest or weed control at 320 g/ha 90
